subject_of_test: acyl-CoA: cholesterol acyltransferase (ACAT) (Oryctolagus cuniculus, UniProt G1SFD9)
Construct: in a tissue preparation containing rabbit intestinal microsomes; from tissue; host or cells: rabbit intestinal microsomes
Sequence (G1SFD9 1-524): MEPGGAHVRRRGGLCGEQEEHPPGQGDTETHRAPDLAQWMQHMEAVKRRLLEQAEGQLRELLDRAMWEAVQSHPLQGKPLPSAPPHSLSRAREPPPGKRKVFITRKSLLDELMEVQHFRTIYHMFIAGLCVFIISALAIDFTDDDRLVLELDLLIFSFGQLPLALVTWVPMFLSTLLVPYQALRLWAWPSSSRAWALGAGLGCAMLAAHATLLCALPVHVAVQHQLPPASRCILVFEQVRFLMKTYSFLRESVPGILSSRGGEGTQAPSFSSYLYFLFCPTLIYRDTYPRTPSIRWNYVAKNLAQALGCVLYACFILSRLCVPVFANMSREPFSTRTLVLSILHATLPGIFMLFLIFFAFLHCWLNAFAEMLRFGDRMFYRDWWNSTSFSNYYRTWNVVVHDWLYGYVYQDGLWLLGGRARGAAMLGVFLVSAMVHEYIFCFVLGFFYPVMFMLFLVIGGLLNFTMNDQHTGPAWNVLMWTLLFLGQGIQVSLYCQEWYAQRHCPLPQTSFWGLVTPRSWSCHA
experimental_details: in vitro inhibition of ACAT (IAI), radiolabeled cholesterol oleate formation in rabbit intestinal microsomes
Type: biochemical
quantity_measured: pIC50
// scale note: pIC50 = -log10(conc_M); give the bare number

Please indicate pIC50 recorded for "CC(C)c1cccc(C(C)C)c1NC(=O)NS(=O)(=O)N(C(C)C)C(C)C"
5.96

Data origin, for the record: patent US5288757A
